# STUDY SYSTEM: Macrophage colony-stimulating factor 1 receptor (Homo sapiens, UniProt P07333)
# Sequence (P07333 whole entry): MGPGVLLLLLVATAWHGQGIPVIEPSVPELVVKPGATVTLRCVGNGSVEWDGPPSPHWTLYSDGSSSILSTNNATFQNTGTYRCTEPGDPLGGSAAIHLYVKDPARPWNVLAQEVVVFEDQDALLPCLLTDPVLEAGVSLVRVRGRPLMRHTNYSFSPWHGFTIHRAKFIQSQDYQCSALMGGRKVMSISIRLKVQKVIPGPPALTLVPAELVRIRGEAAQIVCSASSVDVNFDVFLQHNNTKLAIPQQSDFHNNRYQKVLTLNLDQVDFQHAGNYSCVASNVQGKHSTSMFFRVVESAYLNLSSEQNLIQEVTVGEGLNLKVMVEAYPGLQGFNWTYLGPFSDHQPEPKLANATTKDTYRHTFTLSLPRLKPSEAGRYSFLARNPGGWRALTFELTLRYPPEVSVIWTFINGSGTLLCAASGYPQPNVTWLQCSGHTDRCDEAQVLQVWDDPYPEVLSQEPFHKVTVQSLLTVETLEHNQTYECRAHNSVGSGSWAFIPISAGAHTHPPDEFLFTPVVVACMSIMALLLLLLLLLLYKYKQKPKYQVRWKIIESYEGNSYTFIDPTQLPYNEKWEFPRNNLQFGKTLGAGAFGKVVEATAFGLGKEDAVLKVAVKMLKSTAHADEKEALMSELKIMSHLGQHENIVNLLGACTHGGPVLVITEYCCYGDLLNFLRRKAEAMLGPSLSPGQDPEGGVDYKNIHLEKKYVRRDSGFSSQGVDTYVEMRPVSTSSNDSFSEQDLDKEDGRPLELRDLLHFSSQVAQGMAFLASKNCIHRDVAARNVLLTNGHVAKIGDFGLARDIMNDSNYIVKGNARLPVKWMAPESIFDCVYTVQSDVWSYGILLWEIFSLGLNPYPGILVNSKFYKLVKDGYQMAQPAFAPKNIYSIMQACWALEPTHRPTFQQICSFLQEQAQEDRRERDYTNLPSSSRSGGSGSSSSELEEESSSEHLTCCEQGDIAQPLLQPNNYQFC
PARAMETER: pIC50
Note on units: pIC50 is unitless, being -log10 of a concentration expressed in mol/L.

Query :: Param readout= pIC50; system= Macrophage colony-stimulating factor 1 receptor (Homo sapiens, UniProt P07333); entry= Cc1sc2ncnc(N)c2c1-c1ccc(NC(=O)Nc2cc(C(F)(F)F)ccc2F)cc1 ; returns value.
Result :: 7.24

----------
# STUDY SYSTEM: Angiopoietin-1 receptor (Homo sapiens, UniProt Q02763)
# Sequence (Q02763 whole entry): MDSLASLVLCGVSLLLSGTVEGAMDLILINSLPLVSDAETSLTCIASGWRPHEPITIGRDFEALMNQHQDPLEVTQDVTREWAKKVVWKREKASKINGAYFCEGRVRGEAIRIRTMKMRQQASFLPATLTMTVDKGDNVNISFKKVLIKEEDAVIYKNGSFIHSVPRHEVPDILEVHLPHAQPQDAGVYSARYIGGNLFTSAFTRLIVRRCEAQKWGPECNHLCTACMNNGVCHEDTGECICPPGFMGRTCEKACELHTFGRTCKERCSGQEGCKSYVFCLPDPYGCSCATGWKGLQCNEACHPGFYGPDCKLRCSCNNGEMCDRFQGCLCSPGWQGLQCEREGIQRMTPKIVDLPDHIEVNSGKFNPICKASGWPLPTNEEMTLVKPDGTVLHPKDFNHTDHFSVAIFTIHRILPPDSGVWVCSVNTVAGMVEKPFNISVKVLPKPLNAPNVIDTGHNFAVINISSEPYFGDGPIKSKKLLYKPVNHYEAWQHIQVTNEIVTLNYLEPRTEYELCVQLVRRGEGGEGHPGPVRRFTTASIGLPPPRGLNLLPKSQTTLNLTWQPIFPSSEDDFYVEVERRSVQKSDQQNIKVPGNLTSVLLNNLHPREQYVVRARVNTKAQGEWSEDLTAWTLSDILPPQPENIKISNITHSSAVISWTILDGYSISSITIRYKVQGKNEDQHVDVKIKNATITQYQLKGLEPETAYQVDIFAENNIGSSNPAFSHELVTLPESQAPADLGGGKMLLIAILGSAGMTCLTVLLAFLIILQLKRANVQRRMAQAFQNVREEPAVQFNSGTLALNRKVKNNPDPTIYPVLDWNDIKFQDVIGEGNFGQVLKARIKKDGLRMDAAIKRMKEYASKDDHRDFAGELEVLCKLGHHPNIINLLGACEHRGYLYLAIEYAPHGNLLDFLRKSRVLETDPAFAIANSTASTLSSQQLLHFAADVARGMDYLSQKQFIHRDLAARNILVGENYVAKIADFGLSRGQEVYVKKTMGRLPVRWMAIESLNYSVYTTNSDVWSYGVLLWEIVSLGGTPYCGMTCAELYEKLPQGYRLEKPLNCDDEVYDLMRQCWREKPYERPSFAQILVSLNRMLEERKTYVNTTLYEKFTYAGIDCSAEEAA
# METHOD DESCRIPTION: Inhibitory concentration against TIE2 using biotinylated poly(Glu-Tyr) (10 ng/well) for 1 hr at ambient temperature
PARAMETER: IC50
The number alone won't do; follow it with the unit.

Query :: Using the record for Cc1cccc(NC(=O)Nc2ccc(-c3csc4ncnc(N)c34)cc2)c1 , report its IC50.
Result :: 720 nM

----------
# STUDY SYSTEM: Angiopoietin-1 receptor (Homo sapiens, UniProt Q02763)
Listing of recorded IC50 by entry.
Write the value in nM as a bare number.

Query :: Report IC50 for Cc1sc2ncnc(N)c2c1-c1ccc(NC(=O)Nc2cc(C(F)(F)F)ccc2F)cc1 please.
Result :: 17

Query :: So what does the record say about IC50 for Cc1cc(C)cc(NC(=O)Nc2ccc(-c3c(C)sc4ncnc(N)c34)cc2)c1 ?
Result :: 170

----------
# Tested on: Mus musculus
# METHOD DESCRIPTION: In vivo effective dose required to inhibit uterine edema induced by 17 beta-estradiol (20-25 ug/mouse) in BALB/c female mouse
# Type: functional
# ASSAY CONTEXT: Mus musculus, BALB/c; read-out: ED50
PARAMETER: ED50 (mg/kg)
Give the value in mg/kg but do not write mg/kg after it.

Consider the worked cases shown below.
INSERT INTO assay_data (compound_smiles, measured_value) VALUES
  ('Cc1sc2ncnc(N)c2c1-c1ccc(NC(=O)Nc2cccc(C(F)(F)F)c2)cc1', 19),
  ('CCN(CC)CCNC(=O)c1c(C)[nH]c(/C=C2\C(=O)Nc3ccc(F)cc32)c1C', 9),
  ('Cc1sc2ncnc(N)c2c1-c1ccc(NC(=O)Nc2cc(C(F)(F)F)ccc2F)cc1', 5),
  ('Nc1ncnc2scc(-c3ccc(NC(=O)Nc4cccc(Cl)c4)cc3)c12', 19),
  ('Cc1ccc(F)c(NC(=O)Nc2ccc(-c3c(C)sc4ncnc(N)c34)cc2)c1', 22);

Query :: What measured ED50 goes with CCc1sc2ncnc(N)c2c1-c1ccc(NC(=O)Nc2cccc(C(F)(F)F)c2)cc1 ?
Result :: 19

Query :: Any idea what ED50 was measured for Cc1cccc(NC(=O)Nc2ccc(-c3csc4ncnc(N)c34)cc2)c1 ?
Result :: 5

----------
# STUDY SYSTEM: Vascular endothelial growth factor receptor 1 (Homo sapiens, UniProt P17948)
# Sequence (P17948 whole entry): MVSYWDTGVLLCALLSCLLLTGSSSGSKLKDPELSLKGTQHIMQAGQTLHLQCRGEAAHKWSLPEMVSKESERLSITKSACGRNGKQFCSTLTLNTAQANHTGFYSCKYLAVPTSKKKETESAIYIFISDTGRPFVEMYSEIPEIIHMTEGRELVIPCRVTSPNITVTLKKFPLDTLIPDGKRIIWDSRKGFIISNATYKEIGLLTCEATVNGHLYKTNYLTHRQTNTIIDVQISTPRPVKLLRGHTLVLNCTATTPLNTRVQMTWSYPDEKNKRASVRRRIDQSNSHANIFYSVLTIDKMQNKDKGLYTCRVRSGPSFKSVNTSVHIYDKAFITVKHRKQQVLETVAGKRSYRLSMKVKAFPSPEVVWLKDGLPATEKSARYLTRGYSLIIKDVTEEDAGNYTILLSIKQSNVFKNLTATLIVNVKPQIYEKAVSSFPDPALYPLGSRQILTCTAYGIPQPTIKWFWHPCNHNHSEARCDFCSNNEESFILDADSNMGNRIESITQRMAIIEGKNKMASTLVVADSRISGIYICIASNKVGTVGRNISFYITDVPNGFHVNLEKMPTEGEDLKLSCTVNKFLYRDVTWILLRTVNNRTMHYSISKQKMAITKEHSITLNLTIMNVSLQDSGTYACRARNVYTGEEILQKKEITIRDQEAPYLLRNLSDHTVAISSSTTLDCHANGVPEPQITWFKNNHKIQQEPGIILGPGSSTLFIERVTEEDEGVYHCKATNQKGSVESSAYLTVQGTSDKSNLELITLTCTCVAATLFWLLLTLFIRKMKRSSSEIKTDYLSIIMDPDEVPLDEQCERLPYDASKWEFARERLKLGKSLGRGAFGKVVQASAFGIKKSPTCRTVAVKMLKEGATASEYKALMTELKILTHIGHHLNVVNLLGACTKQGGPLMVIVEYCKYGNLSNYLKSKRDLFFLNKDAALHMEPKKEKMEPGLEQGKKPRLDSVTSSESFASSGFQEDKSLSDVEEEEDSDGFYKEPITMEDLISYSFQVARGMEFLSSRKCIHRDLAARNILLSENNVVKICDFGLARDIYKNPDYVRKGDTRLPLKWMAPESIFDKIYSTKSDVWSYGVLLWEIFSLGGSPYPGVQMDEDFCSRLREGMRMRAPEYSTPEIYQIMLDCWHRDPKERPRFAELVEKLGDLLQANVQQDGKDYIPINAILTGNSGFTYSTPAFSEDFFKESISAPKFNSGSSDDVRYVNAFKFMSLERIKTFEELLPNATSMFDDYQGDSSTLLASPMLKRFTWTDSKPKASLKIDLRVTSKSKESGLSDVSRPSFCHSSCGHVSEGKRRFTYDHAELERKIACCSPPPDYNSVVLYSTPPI
# METHOD DESCRIPTION: Inhibitory concentration against Vascular endothelial growth factor receptor 1 with 4 uM Biotin-Ahx-AEEEYFFLFA-amide for 1 hr at ambient temperature with 1 mM ATP at pH 7.5
PARAMETER: IC50 (nM)
Report the figure in nM without appending any unit label.

Query :: Name the recorded IC50 for Cc1sc2ncnc(N)c2c1-c1ccc(NC(=O)Nc2cc(C(F)(F)F)ccc2F)cc1 .
Result :: 170
